Data credit: patent US20210253557A1

# ASSAY TARGET: UniProt P37288
# MEASUREMENT DESCRIPTION: Cellular in vitro assay for determining vasopressin receptor activity (V1a, aequorin luminescence)
# CONDITIONS USED: CHO cell line transfected with the human V1a receptor; [Arg8]-vasopressin at EC50 concentration; read-out: IC50 hV1a
MEASUREMENT LABEL: IC50 (nM)

[a] C[C@H](NC(=O)OC(C)(C)C)c1nc(Cn2nc(-c3ccc(Cl)cc3)n(C[C@H](O)C(F)(F)F)c2=O)nn1-c1cccc(Cl)c1
[b] NC(=O)OCc1nc(Cn2nc(-c3ccc(Cl)cc3)n(C[C@H](O)C(F)(F)F)c2=O)nn1-c1cccc(F)c1
[c] CC(=O)NC(CO)c1nc(Cn2nc(-c3ccc(Cl)cc3)n(C[C@H](O)C(F)(F)F)c2=O)nn1-c1ncccc1OC(F)(F)F (mixture of isomers) [Example 120]
Q: Ordering: ascending IC50. Sort the labels as requested; that list is your answer.
A: b, c, a
(b: 5.29 nM, c: 12.5 nM, a: 286 nM)

* * *

# ASSAY TARGET: human V1a receptor (Homo sapiens, UniProt P37288)
# Sequence (P37288 whole entry): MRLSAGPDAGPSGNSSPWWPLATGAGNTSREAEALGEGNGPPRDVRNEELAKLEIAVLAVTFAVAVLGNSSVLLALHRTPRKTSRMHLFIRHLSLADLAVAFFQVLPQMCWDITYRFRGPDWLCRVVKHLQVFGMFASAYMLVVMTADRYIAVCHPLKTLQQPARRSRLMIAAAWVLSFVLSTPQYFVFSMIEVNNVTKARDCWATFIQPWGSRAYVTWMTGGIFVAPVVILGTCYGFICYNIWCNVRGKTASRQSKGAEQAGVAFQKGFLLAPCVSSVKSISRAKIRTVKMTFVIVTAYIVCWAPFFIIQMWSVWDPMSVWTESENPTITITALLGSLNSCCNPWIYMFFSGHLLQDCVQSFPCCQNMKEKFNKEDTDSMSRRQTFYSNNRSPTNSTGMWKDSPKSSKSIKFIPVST
# MEASUREMENT DESCRIPTION: Cellular in vitro assay for determining vasopressin receptor activity (V1a, aequorin luminescence)
# CONDITIONS USED: CHO cell line transfected with the human V1a receptor; [Arg8]-vasopressin at EC50 concentration; read-out: IC50 hV1a
MEASUREMENT LABEL: IC50 (nM)

{"MOLECULE": "CN(C)C1(c2nc(Cn3nc(-c4ccc(Cl)cc4)n(C[C@H](O)C(F)(F)F)c3=O)nn2-c2ccccc2Cl)CC1 [Example 79]", "ASSAY TARGET": "human V1a receptor (Homo sapiens, UniProt P37288)", "IC50 (nM)": 1}

[A] NC(=O)OCc1nc(Cn2nc(-c3ccc(Cl)cc3)n(C[C@H](O)C(F)(F)F)c2=O)nn1-c1ccccc1C(F)(F)F [Example 52]
[B] C[C@@H](OC(N)=O)c1nc(Cn2nc(-c3ccc(Cl)cc3)n(C[C@H](O)C(F)(F)F)c2=O)nn1-c1ncccc1F [Example 13]
[C] Cc1ccccc1-n1nc(Cn2nc(-c3ccc(Cl)cc3)n(C[C@H](O)C(F)(F)F)c2=O)nc1COC(N)=O [Example 37]
Q: Please produce an ascending ranking of these molecules based on IC50. Sort the labels as requested; that list is your answer.
A: C, A, B

* * *

# ASSAY TARGET: human V2 receptor (Homo sapiens)
# Sequence (P30518 whole entry): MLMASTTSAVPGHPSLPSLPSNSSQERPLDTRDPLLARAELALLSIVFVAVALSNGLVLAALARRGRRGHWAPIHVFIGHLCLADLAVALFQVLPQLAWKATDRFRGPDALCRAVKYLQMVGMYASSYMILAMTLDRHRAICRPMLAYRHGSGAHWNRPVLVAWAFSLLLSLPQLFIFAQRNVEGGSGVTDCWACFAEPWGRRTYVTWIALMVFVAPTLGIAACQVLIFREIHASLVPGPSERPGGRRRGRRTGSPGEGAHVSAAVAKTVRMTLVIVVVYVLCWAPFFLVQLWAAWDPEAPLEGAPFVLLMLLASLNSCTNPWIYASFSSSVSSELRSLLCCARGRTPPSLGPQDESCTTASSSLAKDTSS
# MEASUREMENT DESCRIPTION: Cellular in vitro assay for determining vasopressin receptor activity (V2, CRE-luciferase)
# CONDITIONS USED: CHO cell line transfected with the human V2 receptor; [Arg8]-vasopressin at EC50 concentration; read-out: IC50 hV2
pIC50: −log10 of the molar value.
MEASUREMENT LABEL: pIC50

{"COMPOUND": "C[C@@H](OC(N)=O)c1nc(Cn2nc(-c3ccc(Cl)cc3)n(C[C@H](O)C(F)(F)F)c2=O)nn1-c1c(F)cccc1Cl [Example 3]", "ASSAY TARGET": "human V2 receptor (Homo sapiens)", "pIC50": 8.16}

[P] CN1C(=O)CC[C@@H]1c1nc(Cn2nc(-c3ccc(Cl)cc3)n(C[C@H](O)C(F)(F)F)c2=O)nn1-c1ncccc1Cl (single isomer, unassigned) [Example 104]
[Q] C[C@@H](OC(N)=O)c1nc(Cn2nc(-c3ccc(Cl)cc3)n(C[C@H](O)C(F)(F)F)c2=O)nn1-c1c(Cl)cccc1Cl [Example 2]
Q: Please indicate which entry, P or Q , has the lower recorded pIC50 value. // output: label of the selected item
A: P
(P: 6.76, Q: 8.24)

* * *

# ASSAY TARGET: human V1a receptor (Homo sapiens)
# MEASUREMENT DESCRIPTION: Cellular in vitro assay for determining vasopressin receptor activity (V1a, aequorin luminescence)
# CONDITIONS USED: CHO cell line transfected with the human V1a receptor; [Arg8]-vasopressin at EC50 concentration; read-out: IC50 hV1a
MEASUREMENT LABEL: IC50 (nM)

Worked cases, IC50 given:
{"COMPOUND": "C[C@H](OC(N)=O)c1nc(Cn2nc(-c3ccc(Cl)cc3)n(C[C@H](O)C(F)(F)F)c2=O)nn1-c1c(Cl)cncc1Cl [Example 19]", "MEASURE UNIT": "nM", "IC50": 1.55}
{"COMPOUND": "O=C(NC(CO)c1nc(Cn2nc(-c3ccc(Cl)cc3)n(C[C@H](O)C(F)(F)F)c2=O)nn1-c1ccccc1Cl)C(F)(F)F (single isomer, unassigned) [Example 97]", "MEASURE UNIT": "nM", "IC50": 4.45}
{"COMPOUND": "C[C@H](OC(N)=O)c1nc(Cn2nc(-c3ccc(Cl)cc3)n(C[C@H](O)C(F)(F)F)c2=O)nn1-c1ccc(Cl)cn1 [Example 16]", "MEASURE UNIT": "nM", "IC50": 160}
{"COMPOUND": "C[C@H](OC(N)=O)c1nc(Cn2nc(-c3ccc(Cl)cc3)n(C[C@H](O)C(F)(F)F)c2=O)nn1-c1ccccc1OC(F)F [Example 5]", "MEASURE UNIT": "nM", "IC50": 1.6}
{"COMPOUND": "CC(N)c1nc(Cn2nc(-c3ccc(Cl)cc3)n(C[C@H](O)C(F)(F)F)c2=O)nn1-c1ccccc1Cl (single isomer, unassigned) [Example 62]", "MEASURE UNIT": "nM", "IC50": 0.97}
{"COMPOUND": "C[C@@H](OC(N)=O)c1nc(Cn2nc(-c3ccc(Cl)cc3)n(C[C@H](O)C(F)(F)F)c2=O)nn1-c1ccccc1Cl [Example 31]", "MEASURE UNIT": "nM", "IC50": 0.94}

[I] O=C1NC(c2nc(Cn3nc(-c4ccc(Cl)cc4)n(C[C@H](O)C(F)(F)F)c3=O)nn2-c2ccccc2Cl)CO1 (single isomer, unassigned) [Example 100]
[II] COc1ccccc1-n1nc(Cn2nc(-c3ccc(Cl)cc3)n(C[C@H](O)C(F)(F)F)c2=O)nc1C(C)OC(N)=O (single isomer, unassigned) [Example 39]
Q: Out of I and II , name the one with the higher IC50. // output: label of the selected item
A: I

[A] C[C@@H](OC(N)=O)c1nc(Cn2nc(-c3ccc(Cl)cc3)n(C[C@H](O)C(F)(F)F)c2=O)nn1-c1ncccc1Cl [Example 15]
[B] COCCNC(=O)OCc1nc(Cn2nc(-c3ccc(Cl)cc3)n(C[C@H](O)C(F)(F)F)c2=O)nn1-c1cccc(F)c1 [Example 44]
[C] C[C@@H](OC(N)=O)c1nc(Cn2nc(-c3ccc(Cl)cc3)n(C[C@H](O)C(F)(F)F)c2=O)nn1-c1ccccn1 [Example 11]
Q: Please produce an ascending ranking of these compounds based on IC50. Sort the labels as requested; that list is your answer.
A: A, B, C

* * *

# ASSAY TARGET: UniProt:P37288
# MEASUREMENT DESCRIPTION: Cellular in vitro assay for determining vasopressin receptor activity (V1a, aequorin luminescence)
# CONDITIONS USED: CHO cell line transfected with the human V1a receptor; [Arg8]-vasopressin at EC50 concentration; read-out: IC50 hV1a
pIC50: −log10 of the molar value.
MEASUREMENT LABEL: pIC50

Worked cases, pIC50 given:
{"MOLECULE": "O=C1NC(c2nc(Cn3nc(-c4ccc(Cl)cc4)n(C[C@H](O)C(F)(F)F)c3=O)nn2-c2ncccc2Cl)CO1 (single isomer, unassigned) [Example 113]", "pIC50": 8.24}
{"MOLECULE": "CCNC(=O)OCc1nc(Cn2nc(-c3ccc(Cl)cc3)n(C[C@H](O)C(F)(F)F)c2=O)nn1-c1cccc(F)c1", "pIC50": 8.25}
{"MOLECULE": "C[C@@H](OC(N)=O)c1nc(Cn2nc(-c3ccc(Cl)cc3)n(C[C@H](OC(N)=O)C(F)(F)F)c2=O)nn1-c1ccccc1Cl", "pIC50": 9.29}
{"MOLECULE": "NC(=O)OCc1nc(Cn2nc(-c3ccc(Cl)cc3)n(C[C@H](O)C(F)(F)F)c2=O)nn1-c1cccc(Cl)c1", "pIC50": 7.59}

[I] CC(C)(C)OCC(NS(C)(=O)=O)c1nc(Cn2nc(-c3ccc(Cl)cc3)n(C[C@H](O)C(F)(F)F)c2=O)nn1-c1ccccc1Cl (single isomer, unassigned) [Example 83]
[II] CS(=O)(=O)NC(CO)c1nc(Cn2nc(-c3ccc(Cl)cc3)n(C[C@H](O)C(F)(F)F)c2=O)nn1-c1ccccc1Cl (single isomer, unassigned) [Example 86]
Q: Out of I and II , name the one with the higher pIC50. // output: label of the selected item
A: II
(II: 9.01, I: 8.71)
